system: P. falciparum Stage V gametocytes; assay: Compound sensitivity testing of Stage V gametocytes; assay type: cell-based; conditions: Plasmodium falciparum, read-out: IC50 against stage V gametocytes
experimental readout: IC50 (µM)
# value in µM; strip the unit string

Query string: Retrieve IC50 measured for CCCCCC(=O)N[C@@H](C(=O)N[C@@H](CCCC)C(=O)N[C@@H](CC(C)C)C(=O)[C@@]1(C)CO1)C(C)C [Analog 18] and print it.
Result string: 0.13

* * *

tested on: P. falciparum Dd2; experiment: P. falciparum Dd2 asexual blood stage SYBR Green I compound sensitivity assay; type: cell-based, Plasmodium falciparum; conditions: P. falciparum activity versus HepG2 activity
experimental readout: Selectivity Index
Note: the reply should be a number with no unit written.

Known Selectivity Index results, listed for orientation:
compound	observed measurement
CCCCCC(=O)NC(Cc1ccc(NC(=O)OC(C)(C)C)cc1)C(=O)N[C@@H](Cc1ccc(NC(=O)OC(C)(C)C)cc1)C(=O)N[C@@H](Cc1ccccc1)C(=O)[C@@]1(C)CO1 (stereo in doubt)	3.75
CCCCCC(=O)N[C@@H](Cc1ccncc1)C(=O)N[C@@H](CCCC)C(=O)N[C@@H](Cc1ccccc1)C(=O)[C@@]1(C)CO1	0.07
CCCCCC(=O)NC(Cc1ccc(N)cc1)C(=O)N[C@@H](Cc1ccc(N)cc1)C(=O)N[C@@H](CC(C)C)C(=O)[C@@]1(C)CO1 (stereo in doubt)	0.02
CCCCCC(=O)NC(Cc1ccc(N)cc1)C(=O)N[C@@H](Cc1ccc(N)cc1)C(=O)N[C@@H](Cc1ccccc1)C(=O)[C@@]1(C)CO1 (stereo in doubt)	13.96

Query string: # lookup: P. falciparum Dd2 Selectivity Index, key = `CCCCCC(=O)N[C@@H](Cc1ccc(N)cc1)C(=O)N[C@@H](CCCC)C(=O)N[C@@H](Cc1ccccc1)C(=O)[C@@]1(C)CO1`
Result string: 41.69

Query string: State Selectivity Index (P. falciparum Dd2) of `CCCCCC(=O)N[C@@H](Cc1ccccc1)C(=O)N[C@@H](CCCC)C(=O)N[C@@H](Cc1ccccc1)C(=O)[C@@]1(C)CO1` .
Result string: 4.60

* * *

test system: P. falciparum Dd2; experiment: P. falciparum Dd2 asexual blood stage SYBR Green I compound sensitivity assay; assay type: cell-based, Plasmodium falciparum; settings: Plasmodium falciparum, DD2, 72 h, asexual blood stage, 72 hour SYBR green assay
experimental readout: IC50 (nM)
Form entry: value (nM) — number only.

compound	experimental readout	endpoint unit	observed measurement
CCCCCC(=O)NC(Cc1ccc(NC(=O)OC(C)(C)C)cc1)C(=O)N[C@@H](Cc1ccc(NC(=O)OC(C)(C)C)cc1)C(=O)N[C@@H](Cc1ccccc1)C(=O)[C@@]1(C)CO1 (stereo in doubt)	IC50	nM	12.2

Query string: Provide IC50 value for the following compound: `CCCCCC(=O)N[C@H](Cc1c[nH]c2ccccc12)C(=O)N[C@@H](CCCC)C(=O)N[C@@H](CC(C)C)C(=O)[C@@]1(C)CO1`
Result string: 2.92

Query string: Using the record for `CCCCCC(=O)N[C@H](C(=O)N[C@@H](CCCC)C(=O)N[C@@H](CC(C)C)C(=O)[C@@]1(C)CO1)C(C)C` , state its measured IC50.
Result string: 4.11

* * *

system: P. falciparum Dd2; test: P. falciparum Dd2 asexual blood stage SYBR Green I compound sensitivity assay; type: cell-based, Plasmodium falciparum; conditions: P. falciparum activity versus HepG2 activity
# Lookup of reported Selectivity Index keyed by entry

Known Selectivity Index results, listed for orientation:
compound	measured on	observed measurement
CCCCCC(=O)N[C@@H](Cc1ccc(N)cc1)C(=O)N[C@@H](CCCC)C(=O)N[C@@H](CC(C)C)C(=O)[C@@]1(C)CO1	P. falciparum Dd2	1.06
CCCCCC(=O)N[C@H](Cc1c[nH]c2ccccc12)C(=O)N[C@@H](CCCC)C(=O)N[C@@H](CC(C)C)C(=O)[C@@]1(C)CO1	P. falciparum Dd2	313.36
CCCCCC(=O)N[C@@H](Cc1c[nH]c2ccccc12)C(=O)N[C@@H](Cc1c[nH]c2ccccc12)C(=O)N[C@@H](CC(C)C)C(=O)[C@@]1(C)CO1	P. falciparum Dd2	3.16
CCCCCC(=O)N[C@@H](Cc1ccc(NC(=O)OC(C)(C)C)cc1)C(=O)N[C@@H](CCCC)C(=O)N[C@@H](Cc1ccccc1)C(=O)[C@@]1(C)CO1	P. falciparum Dd2	87.71
CCCCCC(=O)N[C@@H](Cc1c[nH]c2ccccc12)C(=O)N[C@@H](CCCC)C(=O)N[C@@H](Cc1ccccc1)C(=O)[C@@]1(C)CO1	P. falciparum Dd2	0.66
CCCCCC(=O)N[C@@H](Cc1c[nH]c2ccccc12)C(=O)N[C@@H](Cc1c[nH]c2ccccc12)C(=O)N[C@@H](Cc1ccccc1)C(=O)[C@@]1(C)CO1	P. falciparum Dd2	36.89
CCCCCC(=O)N[C@@H](Cc1ccc(NC(=O)OC(C)(C)C)cc1)C(=O)N[C@@H](CCCC)C(=O)N[C@@H](CC(C)C)C(=O)[C@@]1(C)CO1	P. falciparum Dd2	14.45
CCCCCC(=O)NC(Cc1ccc(NC(=O)OC(C)(C)C)cc1)C(=O)N[C@@H](Cc1ccc(NC(=O)OC(C)(C)C)cc1)C(=O)N[C@@H](CC(C)C)C(=O)[C@@]1(C)CO1 (stereo in doubt)	P. falciparum Dd2	8.74

Query string: Entry `CCCCCC(=O)N[C@@H](Cc1c[nH]c2ccccc12)C(=O)N[C@@H](CCCC)C(=O)N[C@@H](CC(C)C)C(=O)[C@@]1(C)CO1` needs its Selectivity Index filled in; supply it.
Result string: 1.05

Query string: Respond only with Selectivity Index recorded for `CCCCCC(=O)N[C@@H](Cc1ccccc1)C(=O)N[C@@H](CCCC)C(=O)N[C@@H](CC(C)C)C(=O)[C@@]1(C)CO1`
Result string: 5.62

* * *

Test system: P. falciparum Dd2
Assay: P. falciparum Dd2 asexual blood stage SYBR Green I compound sensitivity assay
Assay type: cell-based, Plasmodium falciparum
Conditions: asexual blood stage, 72 hour SYBR green assay; listed as 3
Protocol: P. falciparum Dd2 strain parasites were cultured under standard conditions (31), using RPMI media supplemented with 0.05 mg/ml gentamycin, 0.014 mg/mL hypoxanthine (prepared fresh), 38.4 mM HEPES, 0.2% Sodium Bicarbonate, 3.4 mM Sodium Hydroxide, 0.05% O+ Human Serum (Denatured at […] for 40 min and From Interstate Blood Bank, Memphis, Tenn.) and 0.0025% Albumax). […] Cultures were monitored every one to two days via Giemsa-stained thin smears. […]
experimental readout: IC50
Report the figure along with its unit, number first.

Query string: Look up IC50 of `CCCCCC(=O)N[C@@H](Cc1ccncc1)C(=O)N[C@@H](CCCC)C(=O)N[C@@H](CC(C)C)C(=O)[C@@]1(C)CO1` and report it.
Result string: 3.28 nM

* * *

test system: P. falciparum Dd2; assay: P. falciparum Dd2 asexual blood stage SYBR Green I compound sensitivity assay; type: cell-based, Plasmodium falciparum; conditions: Plasmodium falciparum, DD2, 72 h, asexual blood stage, 72 hour SYBR green assay
experimental readout: pIC50
Lab note: report pIC50 as minus log10 of the concentration in molar units, number only.

Query string: Look up and report measured pIC50 for this entry: `CCCCCC(=O)N[C@@H](Cc1ccccc1)C(=O)N[C@@H](CCCC)C(=O)N[C@@H](Cc1ccccc1)C(=O)[C@@]1(C)CO1`
Result string: 8.17

Query string: # return recorded pIC50 for input CCCCCC(=O)NC(Cc1ccc(NC(=O)OC(C)(C)C)cc1)C(=O)N[C@@H](Cc1ccc(NC(=O)OC(C)(C)C)cc1)C(=O)N[C@@H](CC(C)C)C(=O)[C@@]1(C)CO1 (stereo in doubt)
Result string: 7.87

* * *

Reported pIC50 is given for each of the following molecules.
tested on: P. falciparum Dd2; test: P. falciparum Dd2 asexual blood stage SYBR Green I compound sensitivity assay; type: cell-based, Plasmodium falciparum; details: Plasmodium falciparum, DD2, 72 h, asexual blood stage, 72 hour SYBR green assay
// pIC50 is dimensionless: -log10 of concentration (M)

Below, each entry is followed by its recorded pIC50 result.
molecule	pIC50
CCCCCC(=O)N[C@@H](Cc1ccccc1)C(=O)N[C@@H](CCCC)C(=O)N[C@@H](CC(C)C)C(=O)[C@@]1(C)CO1 [Analog 2]	8.39
CCCCCC(=O)N[C@@H](Cc1ccncc1)C(=O)N[C@@H](CCCC)C(=O)N[C@@H](Cc1ccccc1)C(=O)[C@@]1(C)CO1 [Analog 8]	8.41
CCCCCC(=O)N[C@@H](Cc1c[nH]c2ccccc12)C(=O)N[C@@H](Cc1c[nH]c2ccccc12)C(=O)N[C@@H](CC(C)C)C(=O)[C@@]1(C)CO1 [Analog 16]	8.43

Query string: Note down pIC50 recorded for CCCCCC(=O)NC(Cc1ccc(N)cc1)C(=O)N[C@@H](Cc1ccc(N)cc1)C(=O)N[C@@H](Cc1ccccc1)C(=O)[C@@]1(C)CO1 (stereo in doubt) [Analog 13]
Result string: 7.17

Query string: Read the entry CCCCCC(=O)N[C@@H](Cc1ccc(N)cc1)C(=O)N[C@@H](CCCC)C(=O)N[C@@H](Cc1ccccc1)C(=O)[C@@]1(C)CO1 [Analog 9] and write its reported pIC50.
Result string: 7.09

Query string: // Input: CCCCCC(=O)N[C@@H](Cc1c[nH]c2ccccc12)C(=O)N[C@@H](CCCC)C(=O)N[C@@H](CC(C)C)C(=O)[C@@]1(C)CO1 [Analog 6] . Output its pIC50 only.
Result string: 8.51

Value source: patent US11357817B2
